assay: Cmax in Beagle dog at 3 mg/kg, po and 1 mg/kg, iv; format: ADME, organism-based, Canis lupus familiaris; settings: in vivo
READOUT_TYPE: Cmax (nM)
Give just the number in nM; leave the unit off.

The compound listed as CC(=O)NCCc1ccccc1-c1ccc([C@H]2CNCC[C@@H]2c2ccn(C)c(=O)c2)c(Cl)c1.Cl has a reported Cmax of 350

* * *

target: CYP3A4 (Homo sapiens); experiment: Reversible inhibition of CYP3A4 using testosterone as substrate assessed as remaining activity at 10 uM; type: ADME; conditions: probe testosterone; read-out: Activity
Sequence (P08684 whole entry): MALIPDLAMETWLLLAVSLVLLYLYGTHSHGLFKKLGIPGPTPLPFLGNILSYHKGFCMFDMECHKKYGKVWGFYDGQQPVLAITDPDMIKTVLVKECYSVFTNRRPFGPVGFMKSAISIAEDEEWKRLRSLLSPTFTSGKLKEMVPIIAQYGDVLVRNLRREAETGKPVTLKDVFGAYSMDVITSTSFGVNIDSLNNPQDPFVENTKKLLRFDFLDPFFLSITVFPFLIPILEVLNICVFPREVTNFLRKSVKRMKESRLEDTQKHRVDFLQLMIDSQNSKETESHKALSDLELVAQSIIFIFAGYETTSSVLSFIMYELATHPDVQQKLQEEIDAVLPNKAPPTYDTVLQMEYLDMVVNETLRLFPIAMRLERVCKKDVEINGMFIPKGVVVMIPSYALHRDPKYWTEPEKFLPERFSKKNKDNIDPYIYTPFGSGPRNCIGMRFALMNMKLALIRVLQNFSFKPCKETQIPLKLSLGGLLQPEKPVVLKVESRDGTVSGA
compounds and their reported activity at 10 µM
Give just the number in %; leave the unit off.

1) COC[C@H](C)COCc1ccc([C@@]2(O)CCNC[C@@H]2c2ccc(-c3ccccc3CCNC(C)=O)cc2C)cc1 : 88
2) CC(=O)NCCc1ccccc1-c1ccc([C@@H](CN)Cc2ccc(OCCOc3c(Cl)cc(C)cc3Cl)cc2)c(C)c1.Cl : 53
3) CC(=O)NCCc1ccccc1-c1ccc([C@H]2CNCC[C@@]23OCc2cc(F)c(F)cc23)c(C)c1 : 88
4) CC(=O)NCCc1ccccc1-c1ccc([C@H]2CNCC[C@@H]2c2ccc(F)c(F)c2)c(Cl)c1 : 98
5) CC(=O)NCCc1ccccc1-c1ccc([C@H]2CNCC[C@@H]2c2cccnc2)c(Cl)c1 : 98
6) COC(=O)NCCc1ccccc1-c1ccc([C@H]2CNCC[C@@H]2c2ccn(C)c(=O)c2)c(Cl)c1 : 92
7) CC(=O)NCCc1ccccc1-c1ccc([C@H]2CNCC[C@@]23OC(=O)c2cc(F)c(F)cc23)c(C)c1 : 80

Now examine the next entry.
The compound listed as CC(=O)NCCc1ccccc1-c1ccc([C@H]2CNCC[C@@H]2c2ccn(C)c(=O)c2)c(Cl)c1 has a reported activity at 10 µM of 97
